- Assay System: UniProt:P09619
- Sequence (P09619 whole entry): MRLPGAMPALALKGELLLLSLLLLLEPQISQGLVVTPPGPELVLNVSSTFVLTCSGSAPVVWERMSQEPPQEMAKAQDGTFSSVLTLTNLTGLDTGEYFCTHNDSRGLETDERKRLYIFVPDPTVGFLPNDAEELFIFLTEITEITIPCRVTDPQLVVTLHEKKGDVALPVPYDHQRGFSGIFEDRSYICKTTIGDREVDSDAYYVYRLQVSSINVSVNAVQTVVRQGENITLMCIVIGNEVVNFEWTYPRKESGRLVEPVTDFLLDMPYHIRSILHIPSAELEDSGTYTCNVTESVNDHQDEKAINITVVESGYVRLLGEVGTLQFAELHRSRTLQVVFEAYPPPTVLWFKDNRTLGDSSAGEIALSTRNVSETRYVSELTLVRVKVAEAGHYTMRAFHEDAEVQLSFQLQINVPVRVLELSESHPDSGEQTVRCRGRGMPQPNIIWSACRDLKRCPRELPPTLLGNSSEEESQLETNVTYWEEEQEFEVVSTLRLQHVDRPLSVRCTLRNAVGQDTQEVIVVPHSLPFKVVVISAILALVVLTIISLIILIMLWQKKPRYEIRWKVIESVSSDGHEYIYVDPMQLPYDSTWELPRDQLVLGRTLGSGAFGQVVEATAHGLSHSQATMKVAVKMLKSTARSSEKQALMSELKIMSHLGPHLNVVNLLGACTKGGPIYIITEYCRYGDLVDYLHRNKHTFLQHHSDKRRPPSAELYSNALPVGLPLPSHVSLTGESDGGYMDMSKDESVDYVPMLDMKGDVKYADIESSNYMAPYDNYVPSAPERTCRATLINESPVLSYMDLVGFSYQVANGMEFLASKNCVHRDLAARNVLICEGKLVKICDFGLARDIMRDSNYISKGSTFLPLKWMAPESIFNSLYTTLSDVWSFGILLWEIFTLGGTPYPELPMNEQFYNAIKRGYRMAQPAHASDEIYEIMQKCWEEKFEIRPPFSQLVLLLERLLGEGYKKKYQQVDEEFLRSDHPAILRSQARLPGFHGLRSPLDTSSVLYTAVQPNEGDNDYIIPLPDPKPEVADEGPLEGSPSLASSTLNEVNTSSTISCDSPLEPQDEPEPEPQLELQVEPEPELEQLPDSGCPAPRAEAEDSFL
- Test Protocol: Inhibition of PDGFRbeta in human SH-SY5Y cells by phosphotyrosine ELISA assay
Experimental Endpoint: IC50 (nM)
Give the number; nM is assumed, so skip it.

Solved cases (5 shown):
COc1ccc(N(c2nc(C)nc3oc(C)cc23)C(C)C)cc1 :: 23.1
CCCCN(c1ccc(OC)cc1)c1nc(C)nc2oc(C)cc12 :: 56.5
Cc1nc(Nc2cccc3[nH]ccc23)c2cc(C)oc2n1 :: 28.3
CCCN(c1ccc(OC)cc1)c1nc(C)nc2oc(C)cc12 :: 29.9
C#Cc1cccc(Nc2nc(C)nc3oc(C)cc23)c1 :: 16.2

// IC50 lookup, key: "CCN(c1ccc(OC)cc1)c1nc(C)nc2oc(C)cc12"
27.1

// IC50 lookup, key: "Cc1nc(Nc2ccc(C(F)(F)F)cc2)c2cc(C)oc2n1"
66.1

// IC50 lookup, key: "COc1ccc(Nc2nc(C)nc3oc(C)cc23)cc1"
63.5

----------
- Tested on: SK-OV-3
- Test Protocol: Antiproliferative activity against human SKOV3 cells expressing MDR1/M-6-6
- Type: functional, cell-based
// IC50 lookup, one value per entry
Give the number; µM is assumed, so skip it.

COc1ccc(N(c2nc(C)nc3oc(C)cc23)C(C)C)cc1 :: 7.4

// IC50 lookup, key: "CCCN(c1ccc(OC)cc1)c1nc(C)nc2oc(C)cc12"
3.4

// IC50 lookup, key: "CCN(c1ccc(OC)cc1)c1nc(C)nc2oc(C)cc12"
0.27

----------
- Test system: 4T1
- Test Protocol: Cytotoxicity against mouse triple negative 4T1 cells
- Assay type: functional, cell-based
Experimental Endpoint: pIC50
Keep it numeric: pIC50 is minus log10 of the concentration in mol/L.

CS(=O)(=O)CCNCc1ccc(-c2ccc3ncnc(Nc4ccc(OCc5cccc(F)c5)c(Cl)c4)c3c2)o1 [LAPATINIB] :: 7.98

Under 4T1: pIC50 value of "COc1ccc(N(C)c2nc(C)nc3oc(C)cc23)cc1.Cl" ?
7.01

Under 4T1: pIC50 value of CCN(CC)CCNC(=O)c1c(C)[nH]c(/C=C2\C(=O)Nc3ccc(F)cc32)c1C [SUNITINIB] ?
7.80

Under 4T1: pIC50 value of CC(=O)O[C@@]12CO[C@@H]1C[C@H](O)[C@@]1(C)C(=O)[C@H](O)C3=C(C)[C@@H](OC(=O)[C@H](O)[C@@H](NC(=O)OC(C)(C)C)c4ccccc4)C[C@@](O)([C@@H](OC(=O)c4ccccc4)[C@H]21)C3(C)C.O.O.O [DOCETAXEL] ?
7.20

----------
// IC50 lookup, one value per entry
- Tested on: HeLa
- Test Protocol: Antiproliferative activity against human HeLa cells expressing beta3-tubulin
- Type: functional, cell-based
Give the number; nM is assumed, so skip it.

Solved cases (3 shown):
CCCN(c1ccc(OC)cc1)c1nc(C)nc2oc(C)cc12 :: 1500
COc1ccc(N(C)c2nc(C)nc3oc(C)cc23)cc1.Cl :: 44.7
CCN(c1ccc(OC)cc1)c1nc(C)nc2oc(C)cc12 :: 206

Under HeLa: IC50 value of "COc1ccc(N(c2nc(C)nc3oc(C)cc23)C(C)C)cc1" ?
4070
